Listed here are compounds together with their documented IC50.
- assay system: KRAS G12D (Homo sapiens, UniProt P01116, G12D)
- Sequence (P01116 1-188 isoform P01116-2 G12D): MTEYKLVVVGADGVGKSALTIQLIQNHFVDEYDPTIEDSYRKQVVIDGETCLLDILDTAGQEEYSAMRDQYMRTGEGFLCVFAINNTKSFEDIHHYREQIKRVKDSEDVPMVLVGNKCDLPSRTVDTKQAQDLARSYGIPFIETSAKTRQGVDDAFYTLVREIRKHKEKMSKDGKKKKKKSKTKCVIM
- experiment: KRAS_G12D GDP-GTP exchange assay (bodipy-GDP/GppNHp, SOS1)
- Format: biochemical
- experimental context: bodipy-loaded KRAS G12D 2.5 nM, 4 hours pre-incubation, 2 hours exchange; read-out: G12D_exchange (KRAS_G12D exchange assay IC50)

CN(C)C(=O)CCc1nc2c(N3CC(N(C)C)C3)nc3c(F)c(-c4cccc5c4C(C#N)CC5)ncc3c2n1C1C2CNC1C2 (single isomer, unassigned) [Example 10b] : 1000 to 5000 nM
Cc1nc2c(nc(N3CC(N(C)C)C3)c3nc(CCC(=O)N(C)C)n([C@@H]4[C@@H]5CN[C@H]4C5)c32)c(C)c1-c1cc(O)cc2ccccc12 (relative stereo) : 1000 to 5000 nM

Proceed to the following item.
Challenge: Quick check: IC50 of C[C@H](Oc1nc2c(F)c(-c3c[nH]c4ccc(F)cc34)ncc2c2c1cc(CN1CCOC1=O)n2C1C2CNC1C2)[C@@H]1CCCN1C (single isomer, unassigned) ?
Response given: 100 to 1000 nM

* * *

- assay system: KRAS G12D (Homo sapiens, UniProt P01116, G12D)
- experiment: KRAS_G12D cellular pERK HTRF assay
- Format: cell-based
- Design: CRL-1997; host or cells: A427 or HPAF-II
- experimental context: KRAS G12D cells (A427, HPAF-II), 2 hours; read-out: G12D_pERK (KRAS_G12D pERK assay IC50)
recorded endpoint: IC50

Challenge: Quick check: IC50 of C[C@H](Oc1nc2c(F)c(-c3cccc4c3OCCC4)ncc2c2c1cc(C1CC[C@H]3COC(=O)N13)n2[C@H]1[C@H]2CN[C@@H]1C2)[C@@H]1CCCN1C (single isomer, unassigned) [Example 26b] ?
Response given: 1000 to 5000 nM

Challenge: Record: C[C@H](Oc1nc2c(F)c(-c3cc(O)cc4ccccc34)ncc2c2c1nc(CCC(=O)N(C)C)n2C1C2CNC1C2)[C@@H]1CCCN1C (single isomer, unassigned)
Response given: 1000 to 5000 nM

Challenge: Record: COC(=O)CCc1nc2c(N3CC(N(C)C)C3)nc3c(F)c(-c4cc(O)cc5ccccc45)ncc3c2n1[C@@H]1[C@@H]2CN[C@H]1C2 (relative stereo)
Response given: 1000 to 5000 nM

* * *

- assay system: KRAS G12C (Homo sapiens, UniProt P01116, G12C)
- Sequence (P01116 1-188 isoform P01116-2 G12C): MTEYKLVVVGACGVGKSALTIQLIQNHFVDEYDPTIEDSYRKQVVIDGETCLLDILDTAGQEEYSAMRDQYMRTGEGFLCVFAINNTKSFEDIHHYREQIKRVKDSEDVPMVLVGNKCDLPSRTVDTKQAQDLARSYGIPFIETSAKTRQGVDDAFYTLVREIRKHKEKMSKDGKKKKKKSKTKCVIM
- experiment: KRAS_G12C cellular pERK HTRF assay
- Type: cell-based
- Design: host or cells: MIA PaCa-2
- experimental context: MIA PaCa-2 (KRAS G12C), 4 hours; read-out: G12C_pERK (KRAS_G12C pERK assay IC50)
recorded endpoint: IC50

Worked examples, 2 compounds total:
C=C(F)C(=O)N1CC[C@H](n2nnc3c(N4CC(N(C)CC)C4)nc4c(F)c(-c5cccc6cccc(C#N)c56)ncc4c32)C[C@H]1CC#N [Example 14] : 100 to 1000 nM
CCN(C)C1CN(c2nc3c(F)c(-c4ccc(F)c5cccnc45)ncc3c3c2nnn3[C@H]2CCN(C(=O)/C=C/CF)[C@H](CC#N)C2)C1 [Example 12] : 100 to 1000 nM

Challenge: Quick check: IC50 of CCN(C)C1CN(c2nc3c(F)c(-c4cccc5cccc(C#N)c45)ncc3c3c2nnn3[C@H]2CCN(C(=O)/C=C/CF)[C@H](CC#N)C2)C1 [Example 15] ?
Response given: ≤ 100 nM
